I'd appreciate it if you could supply combination Emax values for the items below.
Tested on: Calu-6 (Non-Small Cell Lung Carcinoma)
MEASUREMENT NOTES: combination Emax (second highest fraction inhibited in the dose matrix, 72 h); higher = more inhibition; extreme values may be limits of the assay
Give bare numbers.

CC(=O)c1c(C)c2cnc(Nc3ccc(N4CCNCC4)cn3)nc2n(C2CCCC2)c1=O [Palbociclib] + Cc1c2c(nn1C)CSCc1cc(n(C)n1)CSc1cc(c3ccccc3c1)OCCCc1c(C(=O)O)n(C)c3c-2c(Cl)ccc13 [AZD5991] (first compound max 10 µM, 7x7, partner max 1 µM)	0.33
NC1(C(=O)N[C@@H](CCO)c2ccc(Cl)cc2)CCN(c2ncnc3[nH]ccc23)CC1 [Capivasertib] + COc1nnc2ccc(N3CCC(c4ccc(OCCN5CCN(C)C(=O)[C@H]5C)cc4)CC3)nn12 [AZD5153] (first compound max 10 µM, 7x7, partner max 1 µM)	0.461

Pending compound:
[in] // lookup combination Emax for CC1(C)CCC(CN2CCN(c3ccc(C(=O)NS(=O)(=O)c4ccc(NCC5CCOCC5)c([N+](=O)[O-])c4)c(Oc4cnc5[nH]ccc5c4)c3)CC2)=C(c2ccc(Cl)cc2)C1 [Venetoclax] + Cn1cnc2c(F)c(Nc3ccc(Br)cc3Cl)c(C(=O)NOCCO)cc21 [Selumetinib] (first compound max 1 µM, 7x7, partner max 3 µM)
[out] 0.431

----------
For each entry below, report its combination Emax value.
Tested on: NCI-H1755 (Lung Adenocarcinoma)
MEASUREMENT NOTES: combination Emax (second highest fraction inhibited in the dose matrix, 72 h); higher = more inhibition; extreme values may be limits of the assay

N#Cc1cnc(Nc2cc(NC[C@H]3CNCCO3)c(C(F)(F)F)cn2)cn1 [SRA737] + Nc1ccn([C@@H]2O[C@H](CO)[C@@H](O)C2(F)F)c(=O)n1 [Gemcitabine] (first compound max 10 µM, 7x7, partner max 0.3 µM)	0.775

// moving on: another record for combination Emax
[in] Please give the measured combination Emax for this compound: COc1cccc(OCCCN)c1-c1cc(Nc2cnc(C#N)cn2)n[nH]1 [Prexasertib] + Cc1cc2ncnn2cc1Nc1ncc2c(n1)n(C1CCOCC1)c(=O)n2C [AZD7648] (first compound max 1 µM, 7x7, partner max 10 µM)
[out] 0.918

----------
System: SJRH30 (Rhabdomyosarcoma)
MEASUREMENT NOTES: combination Emax (second highest fraction inhibited in the dose matrix, 72 h); higher = more inhibition; extreme values may be limits of the assay
Give combination Emax for every item shown.
Answers are plain numbers.

COc1cc2c(cc1OCCCCCOc1cc3c(cc1OC)C(=O)N1C=C(C)C[C@H]1C=N3)N=C[C@@H]1CC(C)=CN1C2=O [SG3199] + O=C(c1cc(Cc2n[nH]c(=O)c3ccccc23)ccc1F)N1CCN(C(=O)C2CC2)CC1 [Olaparib] (first compound max 0.001 µM, 7x7, partner max 10 µM)	0.122
CC(=O)c1c(C)c2cnc(Nc3ccc(N4CCNCC4)cn3)nc2n(C2CCCC2)c1=O [Palbociclib] + Cn1cnc2c(F)c(Nc3ccc(Br)cc3Cl)c(C(=O)NOCCO)cc21 [Selumetinib] (first compound max 10 µM, 7x7, partner max 10 µM)	0.143
Cc1c2c(nn1C)CSCc1cc(n(C)n1)CSc1cc(c3ccccc3c1)OCCCc1c(C(=O)O)n(C)c3c-2c(Cl)ccc13 [AZD5991] + C[C@@H]1COCCN1C2=NC(=NC(=C2)C3(CC3)[S@](=N)(=O)C)C4=C5C=CNC5=NC=C4 [AZD6738] (first compound max 1 µM, 7x7, partner max 10 µM)	0.939
COc1nnc2ccc(N3CCC(c4ccc(OCCN5CCN(C)C(=O)[C@H]5C)cc4)CC3)nn12 [AZD5153] + Cn1cnc2c(F)c(Nc3ccc(Br)cc3Cl)c(C(=O)NOCCO)cc21 [Selumetinib] (first compound max 1 µM, 7x7, partner max 10 µM)	0.486
Cc1cc2ncnn2cc1Nc1ncc2c(n1)n(C1CCOCC1)c(=O)n2C [AZD7648] + CCN(CCO)CCCOc1ccc2c(Nc3cc(CC(=O)Nc4cccc(F)c4)[nH]n3)ncnc2c1 [AZD2811] (first compound max 10 µM, 7x7, partner max 1 µM)	0.24
CS(=O)(=O)CCNCc1ccc(-c2ccc3ncnc(Nc4ccc(OCc5cccc(F)c5)c(Cl)c4)c3c2)o1 [Lapatinib] + C[C@@H](Oc1cc(-c2cnn(C3CCNCC3)c2)cnc1N)c1c(Cl)ccc(F)c1Cl [Crizotinib] (first compound max 10 µM, 7x7, partner max 10 µM)	0.955
CC1(C)CCC(CN2CCN(c3ccc(C(=O)NS(=O)(=O)c4ccc(NCC5CCOCC5)c([N+](=O)[O-])c4)c(Oc4cnc5[nH]ccc5c4)c3)CC2)=C(c2ccc(Cl)cc2)C1 [Venetoclax] + Cc1cc2ncnn2cc1Nc1ncc2c(n1)n(C1CCOCC1)c(=O)n2C [AZD7648] (first compound max 1 µM, 7x7, partner max 10 µM)	0.187
Cc1c2c(nn1C)CSCc1cc(n(C)n1)CSc1cc(c3ccccc3c1)OCCCc1c(C(=O)O)n(C)c3c-2c(Cl)ccc13 [AZD5991] + C1CN(CCC1(C(=O)N[C@@H](CCO)C2=CC=C(C=C2)Cl)N)C3=NC=NC4=C3C=CN4 [Capivasertib] (first compound max 1 µM, 7x7, partner max 3 µM)	0.669

API: the following record is the query input.
[in] Consider the molecule shown here: CN(CCO)CC[C@H](CSc1ccccc1)Nc1ccc(S(=O)(=O)NC(=O)c2ccc(N3CCC([C@@H](O)c4ccccc4-c4ccc(Cl)cc4)CC3)cc2)cc1S(=O)(=O)C(F)(F)F [AZD4320] + CN(C)CCCOc1ccc(-c2ccc3ncc4c(c3c2)n(C2CCOCC2)c(=O)n4C)cn1 [AZD0156] (first compound max 1 µM, 7x7, partner max 1 µM) What is its recorded combination Emax?
[out] 0.147
